- measurement.description: collision cross section of modified peptide (TIMS, N2, iRT-aligned); higher = larger / more extended gas-phase ion
- stated.conditions: charge state: 2; modification: Biotin
# collision cross section >= 400 Å² gives t, anything below gives f

# count of solved cases: 3
IVSGKDYNVTANSK [_IVSGK(Biotin)DYNVTANSK_]; t
VGEFSGANKEK [_VGEFSGANK(Biotin)EK_]; f
DHLSDKESK [_DHLSDK(Biotin)ESK_]; f

Input line: Has TEVLSPNSKVESK [_TEVLSPNSK(Biotin)VESK_] a recorded collision cross section greater than or equal to 400 Å²?
Output line: t

Input line: Same lookup for DKALPLEAEVAPVK [_DK(Biotin)ALPLEAEVAPVK_] , please.
Output line: t

Input line: Same lookup for ITESVAETAQTIKK [_ITESVAETAQTIK(Biotin)K_] , please.
Output line: t

Input line: Same lookup for PASGAGAGAGAGKR [_PASGAGAGAGAGK(Biotin)R_] , please.
Output line: f

Input line: Same lookup for INNFSADIKDSK [_INNFSADIK(Biotin)DSK_] , please.
Output line: t

Input line: Same lookup for LAEEENKAK [_LAEEENK(Biotin)AK_] , please.
Output line: f

Input line: Same lookup for VLTANSNPSSPSAAKR [_VLTANSNPSSPSAAK(Biotin)R_] , please.
Output line: t
